- target.system: cAMP-dependent protein kinase A (Bos taurus) (UniProt P00517+P05131+P31322+P00515)
reported.endpoint: K'a

| molecule | reported.endpoint | test.result |
| --- | --- | --- |
| O=P1(O)OC[C@H]2O[C@@H](n3cc4ccccc4n3)[C@H](O)[C@@H]2O1 | K'a | 1.4 |

P: O=P1(O)OC[C@H]2O[C@@H](n3nc4ccccc4n3)[C@H](O)[C@@H]2O1
Q: O=P1(O)OC[C@H]2O[C@@H](n3nnc4ccccc43)[C@H](O)[C@@H]2O1 (stereo in doubt; 14)
R: Nc1cccc2c1cnn2[C@H]1O[C@@H]2COP(=O)(O)O[C@H]2[C@H]1O
S: O=P1(O)OC[C@H]2O[C@@H](n3ncc4ccccc43)[C@H](O)[C@@H]2O1
Exercise: Rank descending by K'a. Return the labels ranked in the requested order, please.
Solution: P, Q, R, S
(P: 3.5, Q: 0.88, R: 0.54, S: 0.048)

A: O=[N+]([O-])c1cccc2c1cnn2[C@@H]1O[C@@H]2COP(=O)(O)O[C@H]2[C@H]1O
B: Nc1cccc2c1ncn2[C@@H]1O[C@@H]2COP(=O)(O)O[C@H]2[C@H]1O
C: O=[N+]([O-])c1cccc2c1ncn2[C@@H]1O[C@@H]2COP(=O)(O)O[C@H]2[C@H]1O
D: O=[N+]([O-])c1cccc2c1nnn2[C@@H]1O[C@@H]2COP(=O)(O)O[C@H]2[C@H]1O
Exercise: Rank ascending by K'a. Return the labels ranked in the requested order, please.
Solution: B, D, C, A

====

- Species: Oryctolagus cuniculus
reported.endpoint: K'a

| cpd.smiles | test.result |
| --- | --- |
| Nc1cccc2c1nnn2[C@@H]1O[C@@H]2COP(=O)(O)O[C@H]2[C@H]1O | 0.88 |

I: O=P1(O)OC[C@H]2O[C@@H](n3nc4ccccc4n3)[C@H](O)[C@@H]2O1
II: Nc1cccc2c1ncn2[C@@H]1O[C@@H]2COP(=O)(O)O[C@H]2[C@H]1O
Exercise: Param pair: I , II . Output: the one whose K'a is numerically greater. # reply format: chosen label
Solution: I
(I: 0.82, II: 0.2)

====

- Organism: Oryctolagus cuniculus
reported.endpoint: K'a

Example entries begin here.
| compound | K'a |
| --- | --- |
| O=[N+]([O-])c1cccc2c1nnn2[C@@H]1O[C@@H]2COP(=O)(O)O[C@H]2[C@H]1O | 0.88 |
| O=[N+]([O-])c1cccc2c1cnn2[C@@H]1O[C@@H]2COP(=O)(O)O[C@H]2[C@H]1O | 1.17 |
| O=P1(O)OC[C@H]2O[C@@H](n3nnc4ccccc43)[C@H](O)[C@@H]2O1 (stereo in doubt; 14) | 0.64 |
| Nc1cccc2c1cnn2[C@H]1O[C@@H]2COP(=O)(O)O[C@H]2[C@H]1O | 0.65 |
| O=P1(O)OC[C@H]2O[C@@H](n3cc4ccccc4n3)[C@H](O)[C@@H]2O1 | 0.14 |

I: O=P1(O)OC[C@H]2O[C@@H](n3ncc4ccccc43)[C@H](O)[C@@H]2O1
II: O=[N+]([O-])c1cccc2c1ncn2[C@@H]1O[C@@H]2COP(=O)(O)O[C@H]2[C@H]1O
Exercise: Param pair: I , II . Output: the one whose K'a is numerically greater. # reply format: chosen label
Solution: II

These data points were gathered from ChEMBL document CHEMBL1126248.
